Test: soluble fraction after stress (log2 fold change); higher = more stays soluble; pooled small domains, quantitative proteomics;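 also: 20 min heating vs room temperature control held 20 min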
Conditions: stress: 75 degC
Returns one of 1 or 0; 1 when soluble fraction (log2) is >= -1.

{"columns": ["SEQUENCE_RECORD", "DISCRETE_LABEL"],
 "data": [
  ["HMAVANEAIANINMKEVKQAIHNLPEIFKNPFLLYFDGYKYHEIAEMLDEPLGTIKSRIHFARKLLKSHI", 1],
  ["HMDDDIKNALDVLPEQYRMTVYYADVEGLAYKEIGAIMNTPIGTVMSRIHRGRSQLRVLLAAVAADR", 1],
  ["HMSTSRAEIIAFLKSNPSSEYKHELETKLDEMDWAEAVKGNSEESFLAYKQRQPNGTHNGEADEKLKVLLV", 1],
  ["HMTGKTTLEYLNPLLERGIPVWDYLAKASGKAKEEVQEMVSKGLVPGAEAAKAIADYMGAEFAGSMA", 1],
  ["HMDLPDYYFRVRENGAVVFRVGTENRQRRIEMVEIATVNVKNGNIKPHGEVDLTKADRLAIGEWLAARQAQ", 0],
  ["HMSDPELNDNEKKIYDIIFNKKSMDLTELKNLSELSNKQWDKGIKSLSKQDFVKVIKTEEALIVELV", 1],
  ["HMAATISPEIQAEAEKAAALGVESIKNFMASLKEKNPEQHALFSDSEKRRLYAIARKADLNTTQQG", 1],
  ["HMSTLSIHIPDKFAGQRLDQALAELYSQFSRSRLQQWLNDGELLVDGKSVKANKKVLGGEFIQILK", 0],
  ["HMEYQTVEKSEAEQIIQELEKAERLALKVYSKNDIITGISVSDGKSYYFSAELVPMLKNIIENPEIKIL", 1],
  ["HMIIIMKPNASEEAVRKVTHIIESKGLQVHLSKGSQVTIVGVVGDKTRLQGSNIEISEGVDKVVAVT", 0],
  ["HMAVTEVKTTAVVNMRSSDSEKADKLGKAQIGDTFRVLEQRANGWTKLTDGTQEFFIKSEYLEAIA", 1],
  ["HMDNLKELDEILETYGKKKGYLITILQKAQDAYGYISIDIMNRISEFTGIKVAKIYGVATFYAQFRL", 1],
  ["HMPRPRIHSVVRGDTLYGISRQYGVAMSKLASLNGLKSPYRIMVGRSLRLPSAIEAERDRTAREVVQ", 0],
  ["HMKTALQENVRAYRLERKWTQQALAEALEVSVGAVSKWESGVSRPELETLMRLAELFGVSTDALLGF", 0],
  ["HMAEMLENQLKHAKSKQEANEYIAAAIGGVSDDDPDKEYLVAAYNEISKEFHHSSAYHRLPDT", 1],
  ["HMFWEGYLAARREQFLKDQQVLLGNEFRSNPDFWLEVASKEWAVVEERLSTGADVSEEVQETMGLDF", 0],
  ["HMKNFAPVWGEEGAEFGKEVDTGFRLRIVEKEKDVNDLFEVIQKHTIQSQWKPGSTGTESIYKRI", 1]
]}
